Molecular target: wild-type human cardiac sodium channel, hNav1.5 (Homo sapiens, UniProt Q14524)
Sequence (Q14524 whole entry): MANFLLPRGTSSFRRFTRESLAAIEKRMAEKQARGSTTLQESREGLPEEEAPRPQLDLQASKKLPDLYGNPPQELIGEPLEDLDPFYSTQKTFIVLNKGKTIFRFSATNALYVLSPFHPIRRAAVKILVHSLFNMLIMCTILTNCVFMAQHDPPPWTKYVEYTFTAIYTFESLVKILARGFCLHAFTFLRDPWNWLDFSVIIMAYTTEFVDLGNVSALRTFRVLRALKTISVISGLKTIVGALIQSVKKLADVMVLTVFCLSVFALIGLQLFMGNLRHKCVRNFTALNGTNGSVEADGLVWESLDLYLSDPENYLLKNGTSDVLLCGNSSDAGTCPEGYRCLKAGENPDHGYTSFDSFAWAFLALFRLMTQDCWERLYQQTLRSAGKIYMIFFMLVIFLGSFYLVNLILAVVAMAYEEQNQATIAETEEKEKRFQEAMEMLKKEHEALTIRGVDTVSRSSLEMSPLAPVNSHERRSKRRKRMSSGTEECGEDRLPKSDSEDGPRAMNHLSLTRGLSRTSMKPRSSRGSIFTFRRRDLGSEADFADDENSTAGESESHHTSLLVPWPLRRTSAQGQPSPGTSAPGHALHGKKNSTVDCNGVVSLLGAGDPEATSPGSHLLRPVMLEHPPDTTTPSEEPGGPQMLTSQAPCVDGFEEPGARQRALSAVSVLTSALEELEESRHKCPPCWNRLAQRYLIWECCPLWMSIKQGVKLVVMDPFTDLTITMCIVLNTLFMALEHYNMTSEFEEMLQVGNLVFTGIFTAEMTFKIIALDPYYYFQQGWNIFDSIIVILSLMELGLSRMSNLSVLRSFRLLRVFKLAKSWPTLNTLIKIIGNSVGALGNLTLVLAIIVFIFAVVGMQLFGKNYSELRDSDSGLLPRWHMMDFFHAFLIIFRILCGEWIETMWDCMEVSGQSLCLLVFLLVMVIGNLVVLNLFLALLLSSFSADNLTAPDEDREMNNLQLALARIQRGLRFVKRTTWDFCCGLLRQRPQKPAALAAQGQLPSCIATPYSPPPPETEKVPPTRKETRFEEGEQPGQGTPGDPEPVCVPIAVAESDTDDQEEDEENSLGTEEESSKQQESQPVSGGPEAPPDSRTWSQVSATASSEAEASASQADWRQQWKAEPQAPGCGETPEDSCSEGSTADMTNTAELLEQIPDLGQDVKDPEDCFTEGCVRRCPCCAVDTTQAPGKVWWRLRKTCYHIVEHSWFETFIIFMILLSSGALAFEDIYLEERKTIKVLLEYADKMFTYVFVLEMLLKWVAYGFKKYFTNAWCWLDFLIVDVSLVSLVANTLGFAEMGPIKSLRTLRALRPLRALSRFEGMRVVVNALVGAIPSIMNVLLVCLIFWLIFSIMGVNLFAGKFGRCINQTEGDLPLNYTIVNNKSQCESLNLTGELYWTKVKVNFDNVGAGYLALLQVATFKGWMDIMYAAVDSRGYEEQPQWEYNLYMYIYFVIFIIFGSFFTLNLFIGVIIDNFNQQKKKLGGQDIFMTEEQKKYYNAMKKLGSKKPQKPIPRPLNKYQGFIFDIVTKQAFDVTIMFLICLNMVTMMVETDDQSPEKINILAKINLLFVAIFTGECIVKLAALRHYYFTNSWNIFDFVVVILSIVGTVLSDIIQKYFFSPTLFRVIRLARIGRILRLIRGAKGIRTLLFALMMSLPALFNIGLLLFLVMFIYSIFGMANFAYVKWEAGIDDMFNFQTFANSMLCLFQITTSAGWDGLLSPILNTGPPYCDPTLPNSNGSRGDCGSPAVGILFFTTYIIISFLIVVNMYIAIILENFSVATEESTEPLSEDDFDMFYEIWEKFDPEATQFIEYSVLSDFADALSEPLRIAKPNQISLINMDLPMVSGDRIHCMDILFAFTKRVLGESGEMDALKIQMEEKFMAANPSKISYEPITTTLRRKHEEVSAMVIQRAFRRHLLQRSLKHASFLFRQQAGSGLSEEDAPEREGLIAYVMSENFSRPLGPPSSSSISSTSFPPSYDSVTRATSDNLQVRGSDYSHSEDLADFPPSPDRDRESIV
Assay: Late INa screening assay (QPatch whole cell patch clamp, Tefluthrin-induced late current)
Format: cell-based
Details: 1 uM; HEK293 hNav1.5; percent block of late INa
Give label 1 when the value for inhibition at 1 µM is at least 40%. Give label 0 when it is less.

Consider the following illustrative entries.
                               query_smiles                        measurement_target  class_label
0  FC(F)(F)Oc1ccc(-c2ccc3onc(OCc4cnn(-c5ccccn5)c4)c3c2)cc1  wild-type human cardiac sodium channel, hNav1.5 (Homo sapiens, UniProt Q14524)      label 0
1  Cc1cn(-c2noc3ccc(-c4ccc(OC(F)(F)F)cc4)cc23)cn1  wild-type human cardiac sodium channel, hNav1.5 (Homo sapiens, UniProt Q14524)      label 1
2  N#CCC1(COc2noc3ccc(-c4ccc(OC(F)(F)F)cc4)cc23)CC1  wild-type human cardiac sodium channel, hNav1.5 (Homo sapiens, UniProt Q14524)      label 0
3  Fc1cc(OC(F)(F)F)ccc1-c1ccc2onc(OCc3ncccn3)c2c1  wild-type human cardiac sodium channel, hNav1.5 (Homo sapiens, UniProt Q14524)      label 1
4  Cc1cc(-c2cccc(OC(F)(F)F)c2)cc2c(OCc3ncccn3)noc12  wild-type human cardiac sodium channel, hNav1.5 (Homo sapiens, UniProt Q14524)      label 0

Task: Decide: inhibition at 1 µM of `Cn1cc(COc2noc3ccc(-c4ccc(OC(F)(F)F)cc4)cc23)nn1` >= 40%?
Output: label 1

Task: Decide: inhibition at 1 µM of `O=C1CCCN1CCOc1noc2ccc(-c3ccc(OC(F)(F)F)cc3)cc12` >= 40%?
Output: label 1

Task: Decide: inhibition at 1 µM of `Cc1ccnc(COc2noc3ccc(-c4ccc(OC(F)(F)F)cc4)cc23)n1` >= 40%?
Output: label 1
